Overview of recorded viability at 72 h, 100 µM for various molecules
- Assay notes: MTT dye reduction viability test, HaCaT
- Format: cell-based, human
- Condition parameters: human, HaCaT cells (immortal keratinocytes), HaCaT, 100 µM, 72 h, representative MTT result (Table S1 B); read-out: Cells viability
Assay metric: viability at 72 h, 100 µM (%)

# Molecule, Quantitative readout
measured = [
    ("CCCCCC=CCC=CCCCCCCCC(=O)Oc1ccc2c(c1)C(=O)CC(c1ccccc1)O2 (stereo not drawn) [6-Linoleic-Flavanone, 6-hydroxy-flavanone linoleic ester]", 34.9),
    ("CCC=CCC=CCC=CCCCCCCCC(=O)Oc1ccc2c(=O)cc(-c3ccccc3)oc2c1 [7-Linolenic-Flavone, 7-hydroxy-flavone linolenic ester]", 14.6),
    ("CC=CC=CC(=O)Oc1ccc2c(=O)cc(-c3ccccc3)oc2c1 [7-Sorbic-Flavone, 7-hydroxy-flavone sorbic ester]", 43.7),
    ("CCCCCCCCCCCCCCCCCC(=O)Oc1ccc2c(c1)C(=O)CC(c1ccccc1)O2 (stereo not drawn) [6-Stearic-Flavanone, 6-hydroxy-flavanone stearic ester]", 11.7),
    ("O=c1cc(-c2ccccc2)oc2ccc(O)cc12 [Compound 13, 6-Hydroxy-Flavone, reference compound]", 87.8),
    ("CCCCCCCCC=CCCCCCCCC(=O)Oc1ccc2c(=O)cc(-c3ccccc3)oc2c1 [7-Oleic-Flavone, 7-hydroxy-flavone oleic ester]", 44.9),
]

----------
- Tested on: human prostate cancer cells (PC3)
- Assay notes: MTT dye reduction viability test, PC3
- Assay type: cell-based
- Condition parameters: Homo sapiens; PC3, 20 µM, 72 h, representative MTT result (Table S1 A)

# Compound, Unit of measurement, viability at 20 µM
data = [
    ("CC=CC=CC(=O)Oc1ccc2c(=O)cc(-c3ccccc3)oc2c1 [7-Sorbic-Flavone, 7-hydroxy-flavone sorbic ester]", "%", 80.9),
    ("CCCCCCCCC=CCCCCCCCC(=O)Oc1ccc2c(c1)C(=O)CC(c1ccccc1)O2 (stereo not drawn) [6-Oleic-Flavanone, 6-hydroxy-flavanone oleic ester]", "%", 70.9),
    ("O=C1CC(c2ccccc2)Oc2ccc(O)cc21 (stereo not drawn) [6-Hydroxy-Flavanone, 6-hydroxy-flavanone, reference compound]", "%", 96),
]

// provenance: paper PMC8777613
